# tested_on: T1, human PAR-2 (human, UniProt P55085 26-397)
# T1 sequence: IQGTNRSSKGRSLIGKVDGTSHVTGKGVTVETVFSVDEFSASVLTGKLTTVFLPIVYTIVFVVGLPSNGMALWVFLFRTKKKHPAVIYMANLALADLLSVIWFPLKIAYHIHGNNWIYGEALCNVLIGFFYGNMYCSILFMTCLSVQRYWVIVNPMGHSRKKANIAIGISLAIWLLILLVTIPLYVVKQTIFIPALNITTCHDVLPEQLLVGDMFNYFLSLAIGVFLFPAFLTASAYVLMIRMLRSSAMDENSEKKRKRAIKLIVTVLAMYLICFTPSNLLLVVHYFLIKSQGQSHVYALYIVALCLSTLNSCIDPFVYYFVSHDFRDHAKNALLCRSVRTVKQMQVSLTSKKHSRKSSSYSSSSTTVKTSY
# protocol_summary: cell-based or functional assay
Known IC50, PAR-2 β-arrestin cell assay of a selection of binders
Supply the numeric figure in nM, leaving out any unit text.

The examples below pair each entry with its known result.
Ab20 (antibody, human IgG4, V domains shown, also called Anti-PAR-2 antibody # 20) VH: EVQLVESGGGLVQPKGSLKLSCAASGFTFNIYAMHWVRQAPGKGLEWVARIGSKSSNYATNYADSVKDRFTISRDDSQSMLCLQMNNLKTEDTAMYYCVREDYYGNSFDSWGQGTTLAVSS VL: QIVLSQSPAILSASPGEKVTMTCRTSSSVIYIHWYQQKSGSSPKPWIYATSNLASGVPTRFSGSGSGTSYSLTISRVEAEDAATYYCHHWRSNPPTFGGGTKLEIK | 10.7
Ab225 (antibody, human IgG4, V domains shown, also called Anti-PAR-2 antibody # 225) VH: QVQLKESGPGLVQPSQTLSLTCTVSGFSLTSYHVSWVRQSPGKGLEWMGIIWTGGSTAYNSLLKSRLSISRDTSKSQVFLKMNSLQTEDTATYYCARRGAYPFYFDYWGQGVMVTVSS VL: EIVLTQSPTTMAASPGEKVTITCRASSSVRSMYWYQQKSGASPKPWIYETSKLTSGVPDRFSGSGSGTSYSFTISSMGTEDAGTYYCHQWTTTPYTFGAGTKLELK | 3.4

The value of IC50, PAR-2 β-arrestin cell assay measured for the binder Ab87 (antibody, human IgG4, V domains shown, also called Anti-PAR-2 antibody # 87) VH: EVQLVESGGGLVQPKGSLKLSCAASGFTFYSYAMHWVRQAPGRGLEWVARIRSKNVHYATYYADSVKDRFTISRDDSQNMLYLQMNNLKTEDTAMYYCVREDYYGSSYDYWGQGTTLTVSS VL: DIVMTQSHKFMSTSVGDRVSITCKASQDVRSAVAWHQQKPGQSPKLLIYWASNRHTGVPDRFTGSGSGTDFTLTISNVQSEDLADYFCQQYSSYPFTFGSGTKLEIK turned out to be 5.6
